# assay-notes: DUSP6 inhibitors restoring Erk phosphorylation by chemical complementation, primary imaging in DUSP6-transfected HeLa (AID 609)
# details: HeLa MKP-3 transfected, phospho-Erk imaging KS statistic; measured here: nuclear pErk red intensity z-score; at 10 µM; stronger effect = higher value; cells stimulated with TPA for 15 min
Returns 1.0 if the recorded z-score is greater than or equal to -0.8, and 0.0 otherwise.

I'd appreciate it if you could say whether N#C/C(C(=O)NCc1ccco1)=C1/SC(Cc2ccc(F)cc2)C(=O)N1c1ccccc1 (configuration not stated) has z-score at least equal to -0.8. 1.0

I'd appreciate it if you could say whether CN(C)c1oc(-c2cccs2)nc1C#N has z-score at least equal to -0.8. 1.0

I'd appreciate it if you could say whether CC(C)(C)OC(=O)NCCC(=O)Oc1ccc2ccc(=O)oc2c1 has z-score at least equal to -0.8. 1.0

I'd appreciate it if you could say whether CN(C)CC(O)COc1ccc(-c2ccc(C#N)cc2)cc1 (configuration not stated) has z-score at least equal to -0.8. 1.0

I'd appreciate it if you could say whether COc1ccc(OC)c(C2/C(=C(\O)c3ccc4c(c3)OCCO4)C(=O)C(=O)N2CCCN(C)C)c1 (configuration not stated) has z-score at least equal to -0.8. 0.0

I'd appreciate it if you could say whether CCC(=O)Oc1ccc(/C(CC)=C(\CC)c2ccc(OC(=O)CC)cc2)cc1 has z-score at least equal to -0.8. 1.0

I'd appreciate it if you could say whether CCCCOc1nc2ccccc2nc1C(C#N)C(=O)NC1CCCCC1 (configuration not stated) has z-score at least equal to -0.8. 1.0

I'd appreciate it if you could say whether N#CC1=C(N)NC(SCc2ccc(Cl)cc2)=C(C#N)C12CCCCC2 has z-score at least equal to -0.8. 1.0

I'd appreciate it if you could say whether N/C(=N\c1nc2ccccc2o1)NC(=O)c1ccccc1NC(=O)c1ccccc1 has z-score at least equal to -0.8. 1.0

I'd appreciate it if you could say whether Oc1ccc(Br)cc1-c1cc(-c2ccccc2F)[nH]n1 has z-score at least equal to -0.8. 0.0

I'd appreciate it if you could say whether C=CCOC(=O)C(C#N)c1nc2ccccc2nc1N1CCN(c2ccccc2OCC)CC1 (configuration not stated) has z-score at least equal to -0.8. 1.0

I'd appreciate it if you could say whether CCCCN(CCCC)c1nc2ccccc2nc1C(C#N)C(=O)NCCCOC (configuration not stated) has z-score at least equal to -0.8. 1.0

I'd appreciate it if you could say whether OCCNc1ncnc2c1c(-c1ccccc1)c(-c1ccccc1)n2Cc1ccco1 has z-score at least equal to -0.8. 0.0

I'd appreciate it if you could say whether O=c1[nH]c(-c2ccccn2)nc2ccccc12 has z-score at least equal to -0.8. 0.0

I'd appreciate it if you could say whether C=CCn1cnc2c(c1=O)c1nc3ccccc3nc1n2-c1ccc(Cl)cc1 has z-score at least equal to -0.8. 1.0

I'd appreciate it if you could say whether CCCCC1C(=O)N(c2ccccc2)N(c2ccccc2)C1=O has z-score at least equal to -0.8. 1.0

I'd appreciate it if you could say whether COc1ccc(C2N3CC4(C)CN2CC(C)(C3)C4O)cc1OC (configuration not stated) has z-score at least equal to -0.8. 0.0

I'd appreciate it if you could say whether CCN(CC)CCNC(=O)c1ccccc1N has z-score at least equal to -0.8. 1.0

I'd appreciate it if you could say whether CC(C)(C)NCC(O)COc1cccc2c1C[C@H](O)[C@H](O)C2 (some centres not stated) has z-score at least equal to -0.8. 1.0

I'd appreciate it if you could say whether COc1ccc(Cl)cc1C(=O)NCCc1ccc(S(=O)(=O)NC(=O)NC2CCCCC2)cc1 has z-score at least equal to -0.8. 0.0

I'd appreciate it if you could say whether CCCCCCCCCCCCCCCC(O)C(N)CO (configuration not stated) has z-score at least equal to -0.8. 1.0

I'd appreciate it if you could say whether C=CCc1c(C)nc(SCCC)[nH]c1=O has z-score at least equal to -0.8. 1.0

I'd appreciate it if you could say whether OC1CN=C2Sc3ccccc3N2C1 (configuration not stated) has z-score at least equal to -0.8. 1.0

I'd appreciate it if you could say whether CC(=O)Nc1cccc(NC(=O)CSc2nc(C)c(C)c(C)c2C#N)c1 has z-score at least equal to -0.8. 0.0

I'd appreciate it if you could say whether CCN(CC)c1ccc2c(C)c(-c3ccc(N)cc3)c(=O)oc2c1 has z-score at least equal to -0.8. 1.0

I'd appreciate it if you could say whether Cc1c(/C(O)=C2\C(=O)C(=O)N(CCN(C)C)C2c2cccs2)cnn1-c1ccccc1 (configuration not stated) has z-score at least equal to -0.8. 1.0

I'd appreciate it if you could say whether Cc1cc(=O)n2[nH]cnc2n1 has z-score at least equal to -0.8. 0.0

I'd appreciate it if you could say whether COC(=O)c1n[nH]c2ccccc12 has z-score at least equal to -0.8. 0.0

I'd appreciate it if you could say whether O=C(c1ccc(=O)oc1)N1CCOCC1 has z-score at least equal to -0.8. 1.0

I'd appreciate it if you could say whether CCCCCSc1nc(O)cc(=O)[nH]1 has z-score at least equal to -0.8. 1.0

I'd appreciate it if you could say whether NC(N)=NC(N)=NCCc1ccccc1 has z-score at least equal to -0.8. 1.0

I'd appreciate it if you could say whether Cn1c(OCc2ccc3c(c2)OCO3)nc2c1c(=O)n(Cc1cccc(Cl)c1)c(=O)n2C has z-score at least equal to -0.8. 1.0

I'd appreciate it if you could say whether N#Cc1c(N)n(CCOC(=O)c2cccc(Br)c2)c2nc3ccccc3nc12 has z-score at least equal to -0.8. 1.0

I'd appreciate it if you could say whether CCN(CCCc1ccccc1)CCCc1ccccc1 has z-score at least equal to -0.8. 1.0

I'd appreciate it if you could say whether C=C1[C@@H](C)C2[C@H](Cc3ccccc3)NC(=O)[C@]23OC(=O)CC[C@H](O)CCC[C@H](C)C/C=C/[C@H]3[C@@H]1O (some centres not stated) has z-score at least equal to -0.8. 1.0

I'd appreciate it if you could say whether CSc1nnc(N(CCC#N)CCC#N)s1 has z-score at least equal to -0.8. 0.0

I'd appreciate it if you could say whether Cc1cc(=O)oc2c(CN3CCN(C)CC3)c(O)c(Cl)cc12 has z-score at least equal to -0.8. 1.0

I'd appreciate it if you could say whether O=C(CCNNC(=O)c1ccncc1)NCc1ccccc1 has z-score at least equal to -0.8. 1.0

I'd appreciate it if you could say whether CCCc1cc(C(=O)Cc2ccc(F)cc2)c(O)cc1O has z-score at least equal to -0.8. 0.0

I'd appreciate it if you could say whether COc1ccc(N2C(=O)CN=C2Nc2nc(C)cc(C)n2)cc1 has z-score at least equal to -0.8. 1.0

I'd appreciate it if you could say whether CC(=O)N=c1sc(S(N)(=O)=O)nn1C has z-score at least equal to -0.8. 1.0

I'd appreciate it if you could say whether CNC(=O)Nc1cccc(NC(=O)NC)n1 has z-score at least equal to -0.8. 0.0

I'd appreciate it if you could say whether Cc1c(/C(O)=C2\C(=O)C(=O)N(CCN(C)C)C2c2cccnc2)cnn1-c1ccccc1 (configuration not stated) has z-score at least equal to -0.8. 1.0

I'd appreciate it if you could say whether Cc1cc(-c2ccc(F)cc2)nc2cc(C(N)=O)nn12 has z-score at least equal to -0.8. 1.0
